# maps each entry to its T/C
test system: P388 leukemia ip, CD2F1 mice, survival T/C; assay: NCI In Vivo Anticancer Drug Screen. Data for tumor model P388 Leukemia (intraperitoneal) in CD2F1 (CDF1) mice; conditions: endpoint: median survival time; dose: 400.0 mg/kg/injection; schedule: Q01DX001 (ip); vehicle: Klucel (hydroxypropylcellulose) (HPC); higher = longer survival
Inconclusive results and toxic doses are left out.

>  <molecule>
CCN(CC)c1c(C)c(-c2ccccc2)n[n+]([O-])c1-c1ccccc1

>  <T/C>
104 % of control

$$$$
>  <molecule>
COC(=O)/C(=C(\C)C=O)N1C(=O)C(NC(=O)c2ccccc2)C1SSc1nc2ccccc2s1 (configuration not stated)

>  <T/C>
112 % of control

$$$$
>  <molecule>
CC(=O)n1c(Cl)c(C=O)c2ccccc21

>  <T/C>
100 % of control

$$$$
>  <molecule>
NC(=S)N/N=C/c1c(-c2ccccc2)nc2n1CCS2

>  <T/C>
109 % of control

$$$$
>  <molecule>
COc1ccc(-c2nn(C)c3c2C(=O)C=CC3=O)cc1OC

>  <T/C>
95 % of control

$$$$
>  <molecule>
Cc1ccc(S(=O)(=O)N/N=C/c2c(Cl)nc3n2CCS3)cc1

>  <T/C>
94 % of control

$$$$
>  <molecule>
CN1C(=O)C2CCC1n1c(=O)n(-c3ccccc3)c(=O)n12 (configuration not stated)

>  <T/C>
94 % of control

$$$$

----------
Test system: P388 leukemia ip, CD2F1 mice, survival T/C
Assay: NCI In Vivo Anticancer Drug Screen. Data for tumor model P388 Leukemia (intraperitoneal) in CD2F1 (CDF1) mice
Conditions: endpoint: median survival time; dose: 50.0 mg/kg/injection; schedule: Q04DX003 (ip); vehicle: saline with Tween-80; higher = longer survival
Description: The antitumor activity of compounds was measured in mice bearing transplantable tumors. Survival or tumor size were measured and the results are expressed as the measurement made in the treated group (T) divided by the measurement made in the vehicle treated control group (C). The tumor model used in this assay is P388 Leukemia (intraperitoneal) in CD2F1 (CDF1) mice
Inconclusive results and toxic doses are left out.
recordedMetric: T/C

>  <compound>
C[n+]1cccc(C2=CCCC2)c1

>  <targetDesc>
P388 leukemia ip, CD2F1 mice, survival T/C

>  <result>
92 % of control

$$$$
>  <compound>
CCC(c1ccc2cc(OC)ccc2c1)C(C)(C)C(=O)F (stereo unspecified)

>  <targetDesc>
P388 leukemia ip, CD2F1 mice, survival T/C

>  <result>
104 % of control

$$$$
>  <compound>
Nc1nc2c(ncn2C2OC(CO)C(O)C2O)c(=O)[nH]1 (stereo unspecified)

>  <targetDesc>
P388 leukemia ip, CD2F1 mice, survival T/C

>  <result>
120 % of control

$$$$
>  <compound>
ClCc1ccc(CCl)c(Cl)c1Cl

>  <targetDesc>
P388 leukemia ip, CD2F1 mice, survival T/C

>  <result>
95 % of control

$$$$
>  <compound>
CCCCCCC[n+]1ccccc1C#N

>  <targetDesc>
P388 leukemia ip, CD2F1 mice, survival T/C

>  <result>
103 % of control

$$$$
>  <compound>
CC(=O)Nc1nc2c(=O)[nH]c(N)nc2n1C1OC(COC(C)=O)C(OC(C)=O)C1OC(C)=O (stereo unspecified)

>  <targetDesc>
P388 leukemia ip, CD2F1 mice, survival T/C

>  <result>
96 % of control

$$$$

----------
System: P388 leukemia ip, CD2F1 mice, survival T/C
Test: NCI In Vivo Anticancer Drug Screen. Data for tumor model P388 Leukemia (intraperitoneal) in CD2F1 (CDF1) mice
Settings: endpoint: median survival time; dose: 100.0 mg/kg/injection; schedule: Q01DX005 (ip); vehicle: Klucel (hydroxypropylcellulose) (HPC); higher = longer survival
Procedure: The antitumor activity of compounds was measured in mice bearing transplantable tumors. Survival or tumor size were measured and the results are expressed as the measurement made in the treated group (T) divided by the measurement made in the vehicle treated control group (C). The tumor model used in this assay is P388 Leukemia (intraperitoneal) in CD2F1 (CDF1) mice
Inconclusive results and toxic doses are left out.
Entries annotated with measured T/C
recordedMetric: T/C

>  <compound>
CN(C)C1C(=O)C(C(N)=O)=C(O)C2(O)C(=O)C3=C(O)c4c(O)cccc4C(C)(O)C3CC12 (stereo unspecified)

>  <targetDesc>
P388 leukemia ip, CD2F1 mice, survival T/C

>  <result>
95 % of control

$$$$
>  <compound>
CCOCCOCCOc1cccc2cccnc12

>  <targetDesc>
P388 leukemia ip, CD2F1 mice, survival T/C

>  <result>
107 % of control

$$$$
>  <compound>
CCCc1nc(N)[nH]c(=O)c1I

>  <targetDesc>
P388 leukemia ip, CD2F1 mice, survival T/C

>  <result>
95 % of control

$$$$
>  <compound>
O=c1nc2oc(-c3ccccc3)cn2c(=O)n1-c1ncc(-c2ccccc2)o1

>  <targetDesc>
P388 leukemia ip, CD2F1 mice, survival T/C

>  <result>
100 % of control

$$$$
>  <compound>
Cc1nn(-c2ccccc2)c2c1c(=O)c1ccccc1c(=O)n2C

>  <targetDesc>
P388 leukemia ip, CD2F1 mice, survival T/C

>  <result>
104 % of control

$$$$
>  <compound>
CC(=O)Nc1nc(Cl)c2[nH]cnc2n1

>  <targetDesc>
P388 leukemia ip, CD2F1 mice, survival T/C

>  <result>
102 % of control

$$$$
>  <compound>
O=S(=O)(O)c1ccc(Cl)c(N=N/C=N/Nc2cc(S(=O)(=O)O)ccc2Cl)c1

>  <targetDesc>
P388 leukemia ip, CD2F1 mice, survival T/C

>  <result>
98 % of control

$$$$
>  <compound>
CCN1C(=O)C(=C2C=C(c3ccccc3)C(C#N)(c3ccccc3)C(c3ccccc3)=C2)C(=O)N(CC)C1=S (stereo unspecified)

>  <targetDesc>
P388 leukemia ip, CD2F1 mice, survival T/C

>  <result>
97 % of control

$$$$
>  <compound>
CC(=O)N=c1c(Br)cc(Br)c(C)n1O

>  <targetDesc>
P388 leukemia ip, CD2F1 mice, survival T/C

>  <result>
99 % of control

$$$$
>  <compound>
C(=C\c1ccncc1)/c1ccccc1

>  <targetDesc>
P388 leukemia ip, CD2F1 mice, survival T/C

>  <result>
90 % of control

$$$$
>  <compound>
O=c1c2ccccc2nc(C(F)(F)F)n1CCc1c[nH]c2ccccc12

>  <targetDesc>
P388 leukemia ip, CD2F1 mice, survival T/C

>  <result>
92 % of control

$$$$

----------
Entries and their measured T/C follow.
system: P388 leukemia ip, CD2F1 mice, survival T/C; test: NCI In Vivo Anticancer Drug Screen. Data for tumor model P388 Leukemia (intraperitoneal) in CD2F1 (CDF1) mice; conditions: endpoint: median survival time; dose: 25.0 mg/kg/injection; schedule: Q01DX009 (ip); vehicle: other; higher = longer survival
Inconclusive results and toxic doses are left out.

>  <compoundString>
COc1ccc2ccccc2c1C(=O)CCCc1ccccc1

>  <T/C>
98 % of control

$$$$
>  <compoundString>
Brc1cc2c(cc1C=Nc1ccc(OCc3ccccc3)cc1)OCO2

>  <T/C>
98 % of control

$$$$
>  <compoundString>
Cn1nc2c(c1-c1ccncc1)CCc1ccccc1-2

>  <T/C>
105 % of control

$$$$
>  <compoundString>
CC(=O)N(C)N(Cc1ccc([N+](=O)[O-])cc1)C(C)=O

>  <T/C>
95 % of control

$$$$
>  <compoundString>
Cc1c(Cl)cc[n+]([O-])c1C

>  <T/C>
100 % of control

$$$$
>  <compoundString>
O=S(=O)(N/N=C/c1ccncc1)c1ccccc1

>  <T/C>
116 % of control

$$$$
>  <compoundString>
Cc1nc(C(=O)O)cc([N+](=O)[O-])c1C

>  <T/C>
97 % of control

$$$$

----------
Listed here are molecules together with their documented T/C.
system: P388 leukemia ip, CD2F1 mice, survival T/C; assay: NCI In Vivo Anticancer Drug Screen. Data for tumor model P388 Leukemia (intraperitoneal) in CD2F1 (CDF1) mice; details: endpoint: median survival time; dose: 6.25 mg/kg/injection; schedule: Q01DX009 (ip); vehicle: saline with Tween-80; higher = longer survival
Inconclusive results and toxic doses are left out.

>  <molecule>
CCCCN(CCCC)CC(O)c1ccc2cc(Cl)cc(Cl)c2n1 (stereo unspecified)

>  <targetDesc>
P388 leukemia ip, CD2F1 mice, survival T/C

>  <T/C>
90 % of control

$$$$
>  <molecule>
CCCCCCCCCc1ccc(OCCOCCOCCOCCOCCOCCOCCOCCOCCOC(C)N2CCCC2=O)cc1 (stereo unspecified)

>  <targetDesc>
P388 leukemia ip, CD2F1 mice, survival T/C

>  <T/C>
110 % of control

$$$$
>  <molecule>
Clc1ccc2nc(CBr)cnc2c1

>  <targetDesc>
P388 leukemia ip, CD2F1 mice, survival T/C

>  <T/C>
104 % of control

$$$$
>  <molecule>
CN(C)c1ccc(C(C#N)C(C#N)c2ccccc2)cc1 (stereo unspecified)

>  <targetDesc>
P388 leukemia ip, CD2F1 mice, survival T/C

>  <T/C>
94 % of control

$$$$
>  <molecule>
O=C1C2CC=CCC2C(=O)N1SC(Cl)(Cl)Cl (stereo unspecified)

>  <targetDesc>
P388 leukemia ip, CD2F1 mice, survival T/C

>  <T/C>
121 % of control

$$$$
>  <molecule>
[CH3][Sn]1([CH3])[O]P(=O)(c2ccccc2)[O]1

>  <targetDesc>
P388 leukemia ip, CD2F1 mice, survival T/C

>  <T/C>
99 % of control

$$$$

Where do these numbers come from? They come from PubChem BioAssay AID330.
